Measured IC50 by item
molecular target: γ-secretase (Cricetulus griseus, UniProt G3HNF2); test: Cell-Based γ-Secretase Assay with ELISA Readout (production of amyloid beta protein Aβ(1-42)); settings: read-out: Aβ 42B IC50 (nM) (Geometric Mean of 2-5 Determinations); Table 5; human WT-APP overexpressing CHO cells, ~24 h incubation, Aβ(1-42) ELISA; geometric mean of 2-5 determinations
Structures can show the parent of a compound that is named as a salt.
Expressed in nM, but write only the number.

{"Compound": "Cc1cn(-c2ccc3n(c2=O)CCN(Cc2nc(C4(c5ccc(Cl)cc5)CCC4)no2)C3=O)cn1 [Example 18, trifluoroacetate salt]", "IC50 (nM)": 169}

Answer with IC50 of Cc1cn(-c2ccc3n(c2=O)CCN(CC2(c4ccc(Cl)cc4)CC2)C3=O)cn1 [Example 17, trifluoroacetate salt] measured for γ-secretase (Cricetulus griseus, UniProt G3HNF2).
410
